Tested on: mu opiate receptor (MOR)
EXPERIMENTAL_DETAILS: MOR agonist activity using [35S]GTPγS binding assay in striatal membranes
Format: biochemical
TEST_CONTEXT: Series C-1; 1 μM compound; [35S]GTPγS binding to Gαo, striatal membranes
Threshold-based label: Concentration of FLNA-Binding Compound as Agonist 1 μM under 200% gives yes (1), Concentration of FLNA-Binding Compound as Agonist 1 μM not under 200% gives no (0).

Data request: Record COc1ccc(C(=O)N2CCC3(CC2)OCCN3S(=O)(=O)c2ccc(OC)cc2)cc1 : is its Concentration of FLNA-Binding Compound as Agonist 1 μM strictly below 200%?
Data returned: no (0)

Data request: Record CC(=O)c1ccc(S(=O)(=O)N2CCC3(CC2)OC(CN(C)C)CN3S(=O)(=O)c2ccc(C(C)=O)cc2)cc1 (centres unmarked) : is its Concentration of FLNA-Binding Compound as Agonist 1 μM strictly below 200%?
Data returned: no (0)

Data request: Record COc1ccc(S(=O)(=O)N2CCC3(CC2)OCCN3S(=O)(=O)c2ccc(C(C)=O)cc2)cc1 : is its Concentration of FLNA-Binding Compound as Agonist 1 μM strictly below 200%?
Data returned: no (0)

Data request: Record COc1cccc(S(=O)(=O)N2CCC3(CC2)OCCN3S(=O)(=O)c2cccc(OC)c2)c1 : is its Concentration of FLNA-Binding Compound as Agonist 1 μM strictly below 200%?
Data returned: yes (1)

Data request: Record CC(=O)c1ccc(S(=O)(=O)N2CCC3(CC2)NC(=O)C(Cc2cnc[nH]2)N3S(=O)(=O)c2ccc(C(C)=O)cc2)cc1 (centres unmarked) [Compound C0084M] : is its Concentration of FLNA-Binding Compound as Agonist 1 μM strictly below 200%?
Data returned: no (0)

Data request: Record O=S(=O)(c1ccc(C(F)(F)F)cc1)N1CCC2(CC1)OCCN2S(=O)(=O)c1ccc(C(F)(F)F)cc1 : is its Concentration of FLNA-Binding Compound as Agonist 1 μM strictly below 200%?
Data returned: no (0)

Data request: Record O=C(O)c1ccc(C(=O)N2CCC3(CC2)OCCN3S(=O)(=O)c2ccc(C(=O)O)cc2)cc1 : is its Concentration of FLNA-Binding Compound as Agonist 1 μM strictly below 200%?
Data returned: yes (1)

Data request: Record O=S(=O)(c1csc2ccccc12)N1CCC2(CC1)OCCN2S(=O)(=O)c1csc2ccccc12 [Compound C0150M] : is its Concentration of FLNA-Binding Compound as Agonist 1 μM strictly below 200%?
Data returned: no (0)

Data request: Record O=S(=O)(c1ccc(-c2ccccc2)cc1)N1CCC2(CC1)OCCN2S(=O)(=O)c1ccc(-c2ccccc2)cc1 : is its Concentration of FLNA-Binding Compound as Agonist 1 μM strictly below 200%?
Data returned: no (0)

Data request: Record O=S(=O)(c1cccc2cccnc12)N1CCC2(CC1)OCCN2S(=O)(=O)c1cccc2cccnc12 [Compound C0143M] : is its Concentration of FLNA-Binding Compound as Agonist 1 μM strictly below 200%?
Data returned: yes (1)

Data request: Record O=S(=O)(c1ccc(Br)c(C(F)(F)F)c1)N1CCC2(CC1)OCCN2S(=O)(=O)c1ccc(Br)c(C(F)(F)F)c1 : is its Concentration of FLNA-Binding Compound as Agonist 1 μM strictly below 200%?
Data returned: no (0)

Data request: Record CC(=O)c1ccc(C(=O)N2CCOC23CCN(S(=O)(=O)c2ccc(C(C)=O)cc2)CC3)cc1 : is its Concentration of FLNA-Binding Compound as Agonist 1 μM strictly below 200%?
Data returned: yes (1)
